Tested on: southern armyworm (Spodopetra eridania Cramer)
Experiment: Mite/insect screen, SAW
Type: in vivo
Particulars: Spodoptera eridania, percent mortality; SAW, SM & MA RATE 400 PPM; read-out: SAW RESULTS %
Consider the following molecules and their measured mortality at 400 ppm readings.
Numeric only. Scale: %

Molecule | Unit | mortality at 400 ppm
FC(F)(F)c1ccc2c(NCCc3ccc(Cl)cc3)ccnc2c1 | % | 0

Query molecule follows.
Asked: I would be grateful if you could share the reported mortality at 400 ppm for `Fc1cccc2c(NCCc3ccc(I)cc3)ccnc12` .
Given back: 100

###

System: Puccinia recondita tritici (leaf rust)
Experiment: Test 1 greenhouse foliar spray screen, leaf rust on wheat
Type: in vivo
Particulars: Puccinia recondita, foliar, Test 1, foliar spray on wheat; disease control rating at 400 ppm / 100 ppm
Measurement Name: pest or weed control at 400 ppm

Solved entries:
Mol Smiles | pest or weed control at 400 ppm
CC(C)(C)c1ccc(CCOc2ccnc3cc(F)ccc23)cc1 | 0 to 19%
Cc1cccc(CCOc2ccnc3c(F)cccc23)c1 | 90 to 100%
c1ccc(CCNc2ccnc3c(NCCc4ccccc4)cccc23)cc1 | 20 to 89%
Cc1ccccc1CCOc1ccnc2c(F)cccc12 | 90 to 100%

Query compound follows.
Asked: I would be grateful if you could share the reported pest or weed control at 400 ppm for `C1=C(CCNc2ccc3nccc(NCCC4=CCCCC4)c3c2)CCCC1` .
Given back: 90 to 100%

###

Tested on: Puccinia recondita tritici (leaf rust)
Experiment: Test 1 greenhouse foliar spray screen, leaf rust on wheat
Type: in vivo
Particulars: Puccinia recondita, foliar, Test 1, foliar spray on wheat; disease control rating at 400 ppm / 100 ppm
Consider the following molecules and their measured pest or weed control at 400 ppm readings.

Solved entries:
Molecule | pest or weed control at 400 ppm
CCOc1ccc2nc(C)cc(OCCCOCc3ccccc3)c2c1 | 90 to 100%
CC(C)(C)c1ccc(CCOc2ccnc3c(Br)cccc23)cc1 | 0 to 19%
Fc1ccc(CCOc2ccnc3c(F)cccc23)cc1 | 90 to 100%
CCOc1ccc(CCOc2ccnc3cc(Cl)cc(Cl)c23)cc1 | 0 to 19%
CC(C)(CNc1ccnc2c(Cl)cccc12)c1ccccc1 | 0 to 19%

Asked: I would be grateful if you could share the reported pest or weed control at 400 ppm for `Fc1cccc2c(NCCc3ccc(Cl)cc3Cl)cc(NCCc3ccc(Cl)cc3Cl)nc12` .
Given back: 90 to 100%

Asked: I would be grateful if you could share the reported pest or weed control at 400 ppm for `Cc1ccc(CCOc2ccnc3cc(F)ccc23)cc1` .
Given back: 90 to 100%

Asked: I would be grateful if you could share the reported pest or weed control at 400 ppm for `CC(C)(CNc1ccnc2c(F)cccc12)c1ccccc1` .
Given back: 90 to 100%

Asked: I would be grateful if you could share the reported pest or weed control at 400 ppm for `Fc1cccc2c(OCCc3ccc4ccccc4c3)ccnc12` .
Given back: 90 to 100%

Asked: I would be grateful if you could share the reported pest or weed control at 400 ppm for `CC(C)c1ccc(CCOc2ccnc3c(F)cccc23)cc1` .
Given back: 90 to 100%

Asked: I would be grateful if you could share the reported pest or weed control at 400 ppm for `Cc1cc(C)c(CCOc2ccnc3c(F)cccc23)c(C)c1` .
Given back: 20 to 89%

###

System: Twospotted spider mites (Tetranychus urticae Koch)
Experiment: Mite/insect screen, SM
Type: in vivo
Particulars: Tetranychus urticae, foliar, percent mortality; rate 200 ppm, foliar spray on squash; read-out: SM RESULTS %
Consider the following compounds and their measured mortality at 200 ppm readings.
Numeric only. Scale: %

Solved entries:
Compound | mortality at 200 ppm [%]
Fc1cccc2c(NCCCCc3ccccc3)ccnc12 [Example 268] | 0
COc1ccccc1CCOc1ccnc2c(F)cccc12 [Example 228] | 0
Fc1cccc2c(OCCc3cccs3)ccnc12 [Example 246] | 0

Asked: I would be grateful if you could share the reported mortality at 200 ppm for CC(=O)N(CCC1=CCCCC1)c1ccnc2c(C)cc(C)cc12 [Example 179] .
Given back: 0

###

Tested on: southern armyworm (Spodopetra eridania Cramer)
Experiment: Mite/insect screen, SAW
Type: in vivo
Particulars: Spodoptera eridania, percent mortality; SAW, SM & MA RATE 400 PPM; read-out: SAW RESULTS %
Measurement Name: mortality at 400 ppm

Mol Smiles | Experimental System | Result
COc1ccc(CCNc2ccnc3c(F)cccc23)cc1 | southern armyworm (Spodopetra eridania Cramer) | 0%

Query compound follows.
Asked: Please provide the recorded mortality at 400 ppm for `CC(C)(C)c1ccc(CCNc2ccnc3c(F)cccc23)cc1` , tested on southern armyworm (Spodopetra eridania Cramer).
Given back: 20%

###

Tested on: Twospotted spider mites (Tetranychus urticae Koch)
Experiment: Mite/insect screen, SM
Assay type: in vivo
Particulars: Tetranychus urticae, foliar, percent mortality; rate 400 ppm, foliar spray on squash; read-out: SM RESULTS %
Consider the following compounds and their measured mortality at 400 ppm readings.
Numeric only. Scale: %

Compound | Experimental System | mortality at 400 ppm [%]
Fc1cccc2c(CCCc3ccc(Cl)cc3)ccnc12 [Example 261] | Twospotted spider mites (Tetranychus urticae Koch) | 50
FC(F)(F)c1ccc2c(CCCc3ccccc3)ccnc2c1 [Example 254] | Twospotted spider mites (Tetranychus urticae Koch) | 0

Asked: I would be grateful if you could share the reported mortality at 400 ppm for Fc1cccc2c(CCCc3ccc(-c4ccccc4)cc3)ccnc12 [Example 257] .
Given back: 0

###

Consider the following compounds and their measured pest or weed control at 400 ppm readings.
System: Erysiphe graminis tritici (powdery mildew)
Experiment: Test 1 greenhouse foliar spray screen, powdery mildew on wheat
Assay type: in vivo
Particulars: Blumeria graminis, foliar, Test 1, foliar spray on wheat; disease control rating at 400 ppm / 100 ppm; read-out: POWD MDEW

Solved entries:
Compound | Measurement Name | Result
c1csc(CCOc2ccnc3ccccc23)c1 [Example 245, 4-[2-(2-thienyl)ethoxy]quinoline] | pest or weed control at 400 ppm | 20 to 89%
Cc1ccc(CCOc2ccnc3c(F)cccc23)cc1 [Example 212] | pest or weed control at 400 ppm | 90 to 100%
CC(C)c1ccc(CCCc2ccnc3c(F)cccc23)cc1 [Example 256] | pest or weed control at 400 ppm | 90 to 100%
Cc1cc(C)c(CCOc2ccnc3c(F)cccc23)c(C)c1 [Example 227] | pest or weed control at 400 ppm | 0 to 19%
CC(C)(C)c1ccc(CCCOc2ccnc3c(F)cccc23)cc1 [Example 241] | pest or weed control at 400 ppm | 0 to 19%

Asked: I would be grateful if you could share the reported pest or weed control at 400 ppm for Fc1cccc2c(OCCCCCCOc3ccccc3)ccnc12 [Example 287] .
Given back: 0 to 19%

Asked: I would be grateful if you could share the reported pest or weed control at 400 ppm for Cc1ccccc1CCOc1ccnc2c(F)cccc12 [Example 205] .
Given back: 90 to 100%

Asked: I would be grateful if you could share the reported pest or weed control at 400 ppm for Fc1ccc(CCOc2ccnc3cc(Cl)ccc23)cc1 [Example 236] .
Given back: 90 to 100%

Asked: I would be grateful if you could share the reported pest or weed control at 400 ppm for CC(C)(C)c1ccc(CCOc2ccnc3cc(Cl)ccc23)cc1 [Example 231] .
Given back: 20 to 89%

Asked: I would be grateful if you could share the reported pest or weed control at 400 ppm for Fc1cccc2c(CCCc3ccccc3)ccnc12 [Example 253, 8-fluoro-4-(3-phenylpropyl)quinoline] .
Given back: 90 to 100%

Asked: I would be grateful if you could share the reported pest or weed control at 400 ppm for Fc1ccc2c(OCCOc3ccc(Br)cc3)ccnc2c1 [Example 292] .
Given back: 0 to 19%

Asked: I would be grateful if you could share the reported pest or weed control at 400 ppm for Oc1ccc(CCNc2ccnc3c(F)cccc23)cc1 [Example 293] .
Given back: 0 to 19%

Asked: I would be grateful if you could share the reported pest or weed control at 400 ppm for Clc1ccc(CCCOc2ccnc3c(Cl)cccc23)cc1 [Example 242] .
Given back: 0 to 19%

Asked: I would be grateful if you could share the reported pest or weed control at 400 ppm for CC(C)(CNc1ccnc2c(F)cccc12)c1ccccc1 [Example 289] .
Given back: 20 to 89%

Asked: I would be grateful if you could share the reported pest or weed control at 400 ppm for Fc1cccc2c(OCCCC(Br)CBr)ccnc12 (stereo not drawn) [Example 284] .
Given back: 0 to 19%

Asked: I would be grateful if you could share the reported pest or weed control at 400 ppm for CC(C)c1ccc(CCOc2ccnc3c(F)cccc23)cc1 [Example 238] .
Given back: 90 to 100%

Asked: I would be grateful if you could share the reported pest or weed control at 400 ppm for Fc1cccc2c(OCCc3ccc4ccccc4c3)ccnc12 [Example 247] .
Given back: 90 to 100%

Asked: I would be grateful if you could share the reported pest or weed control at 400 ppm for CC(Cc1ccccc1)Oc1ccnc2c(F)cccc12 (stereo not drawn) [Example 214] .
Given back: 20 to 89%

Asked: I would be grateful if you could share the reported pest or weed control at 400 ppm for CC(C)(C)c1ccc(CCCc2ccnc3c(F)cccc23)cc1 [Example 260] .
Given back: 90 to 100%

Asked: I would be grateful if you could share the reported pest or weed control at 400 ppm for Cc1cccc(CCOc2ccnc3c(F)cccc23)c1 [Example 224] .
Given back: 90 to 100%

Asked: I would be grateful if you could share the reported pest or weed control at 400 ppm for Fc1cccc2c(NCCCCc3ccccc3)ccnc12 [Example 268] .
Given back: 20 to 89%
